Please respond with reported pIC50 for every item in the list.
target: rat NaPi-2b (Rattus norvegicus); assay: Sodium-dependent phosphate uptake of Xenopus oocytes which expressed NaPi-2b (32P); conditions: Xenopus oocytes expressing rat NaPi-2b, 32P radioactive phosphorus; read-out: IC50 (phosphate uptake inhibitory activity)
Note: pIC50 values are expressed as the negative base-10 logarithm of concentration in M.

Under rat NaPi-2b (Rattus norvegicus): pIC50 value of Cc1ccc(/C=N/NC(=O)c2cc(N3CCCCC3)ccc2NC(=O)c2cccc(CSCCC(=O)O)c2)cc1C ? 6.09

Reported pIC50 for rat NaPi-2b (Rattus norvegicus), given O=C(Nc1ccc(Br)cc1C(=O)N/N=C/c1ccc(Cl)cc1)c1ccc(F)cc1 ? 5.42

Give pIC50 (rat NaPi-2b (Rattus norvegicus)) of the following compound: Cc1cccc(/C=N/NC(=O)c2cc(Cl)ccc2NC(=O)c2cccc(CN3CCC(N4CCCCC4)CC3)c2)c1 5.73

Record lookup: for rat NaPi-2b (Rattus norvegicus), what pIC50 belongs to Cc1ccccc1/C=N/NC(=O)c1ccccc1NC(=O)c1ccccc1 ? 5.20

Record lookup: for rat NaPi-2b (Rattus norvegicus), what pIC50 belongs to Cc1ccc(/C=N/NC(=O)c2ccccc2NC(=O)c2ccncc2)cc1 [Compound 137] ? 5.52

Record Cc1ccc(/C=N/NC(=O)c2cc(N3CCCCC3)ccc2NC(=O)c2cccc(CN3CCC(O)CC3)c2)cc1C : what is its pIC50 with rat NaPi-2b (Rattus norvegicus)? 6.28

Write down the reported pIC50 of O=C(Nc1ccc(Br)cc1C(=O)N/N=C/c1ccc(F)cc1)c1ccc(CN2CCC(O)CC2)cc1 , test system: rat NaPi-2b (Rattus norvegicus). 5.29

Report pIC50 for COc1ccc(/C=N/NC(=O)c2c(C)csc2NC(=O)c2cccc(CN3CCC(CO)CC3)c2)cc1 tested on rat NaPi-2b (Rattus norvegicus). 5.03

###

Please respond with reported IC50 for every item in the list.
molecular target: rat NaPi-2b (Rattus norvegicus); assay: Sodium-dependent phosphate uptake of Xenopus oocytes which expressed NaPi-2b (32P); settings: Xenopus oocytes expressing rat NaPi-2b, 32P radioactive phosphorus; read-out: IC50 (phosphate uptake inhibitory activity)
Reply with just the number (in µM).

Returns the measured IC50 for the input compound. Input: O=C(Nc1ccccc1C(=O)N/N=C/c1ccc(F)cc1)c1ccc(F)cc1 3.01

For Cc1ccc(/C=N/NC(=O)c2c(C)csc2NC(=O)c2cccc(CN3CCC(N4CCCCC4)CC3)c2)cc1 , what is its reported IC50? 6.04

Which value of IC50 has been reported for COc1cc(OC)cc(C(=O)Nc2ccc(Br)cc2C(=O)N/N=C/c2ccc(C)cc2)c1 in the records? 0.74

Reported IC50, compound COc1cccc(/C=N/NC(=O)c2cc(Cl)ccc2NC(=O)c2cccc(CN3CCC(N4CCCCC4)CC3)c2)c1 : ____ 9.25

###

Target: rat NaPi-2b (Rattus norvegicus, UniProt Q9JJ09)
Construct: expressed in transfected cells; host or cells: Xenopus oocytes injected with cRNA
Sequence (Q9JJ09 1-695): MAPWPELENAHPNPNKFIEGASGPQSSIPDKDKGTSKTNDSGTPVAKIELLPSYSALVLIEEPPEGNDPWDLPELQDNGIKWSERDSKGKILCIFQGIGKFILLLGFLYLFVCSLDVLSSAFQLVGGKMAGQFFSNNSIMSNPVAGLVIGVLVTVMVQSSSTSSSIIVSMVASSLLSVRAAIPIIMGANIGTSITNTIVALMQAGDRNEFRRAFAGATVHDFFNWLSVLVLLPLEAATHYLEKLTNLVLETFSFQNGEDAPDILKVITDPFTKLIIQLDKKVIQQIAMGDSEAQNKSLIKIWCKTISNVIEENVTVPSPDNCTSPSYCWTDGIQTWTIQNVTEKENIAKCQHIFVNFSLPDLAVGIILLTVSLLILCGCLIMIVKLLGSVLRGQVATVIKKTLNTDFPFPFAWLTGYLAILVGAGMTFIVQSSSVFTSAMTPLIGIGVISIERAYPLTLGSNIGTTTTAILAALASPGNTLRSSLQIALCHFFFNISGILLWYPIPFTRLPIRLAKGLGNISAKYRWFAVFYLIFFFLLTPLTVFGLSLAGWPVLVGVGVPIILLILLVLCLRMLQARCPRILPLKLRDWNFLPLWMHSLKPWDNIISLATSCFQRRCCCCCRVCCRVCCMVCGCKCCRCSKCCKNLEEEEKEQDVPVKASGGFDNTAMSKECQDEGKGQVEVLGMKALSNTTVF
Test: Sodium-dependent phosphate uptake of Xenopus oocytes which expressed NaPi-2b (32P)
Format: cell-based
Settings: Xenopus oocytes expressing rat NaPi-2b, 32P radioactive phosphorus; read-out: IC50 (phosphate uptake inhibitory activity)
Measurement Type: pIC50
Lab note — pIC50 values are minus log10 of concentrations in M.

Entry CCN1CC(NCc2ccc(C(=O)Nc3ccc(Br)cc3C(=O)N/N=C/c3ccc(OC)cc3)cc2)CN1CC , system rat NaPi-2b (Rattus norvegicus, UniProt Q9JJ09): what pIC50 was measured? 4.99

rat NaPi-2b (Rattus norvegicus, UniProt Q9JJ09) / pIC50 / COc1ccc(C(=O)Nc2ccccc2C(=O)N/N=C/c2cccnc2)cc1 : value? 4.38

Field: pIC50 (rat NaPi-2b (Rattus norvegicus, UniProt Q9JJ09)). Entry: Cc1ccc(/C=N/NC(=O)c2c(NC(=O)c3cccc(CN4CCC(O)CC4)c3)sc3c2CCCC3)cc1 5.76

Recorded pIC50 for COc1ccc(C(=O)Nc2ccccc2C(=O)N/N=C(\C)c2cccc(F)c2)cc1OC with rat NaPi-2b (Rattus norvegicus, UniProt Q9JJ09), please? 4.78

Value wanted: pIC50 (rat NaPi-2b (Rattus norvegicus, UniProt Q9JJ09)) of entry CCN(CC)CCN(C)Cc1cccc(C(=O)Nc2c(C)csc2C(=O)N/N=C/c2ccc(Cl)c(C(F)(F)F)c2)c1 4.51

Lab note: need pIC50 for COc1ccc(C(=O)Nc2scc(C)c2C(=O)N/N=C/c2cccc(F)c2)cc1OC on rat NaPi-2b (Rattus norvegicus, UniProt Q9JJ09), anyone have it? 5.77

Hi! What's the reported pIC50 for Cc1cccc(/C=N/NC(=O)c2cc(Br)ccc2NC(=O)c2cccs2)c1 on rat NaPi-2b (Rattus norvegicus, UniProt Q9JJ09)? 5.36

I'm curious: which pIC50 was measured for COc1ccc(/C=N/NC(=O)c2c(C)csc2NC(=O)c2cccc(CN(C)C)c2)cc1 tested on rat NaPi-2b (Rattus norvegicus, UniProt Q9JJ09)? 5.34

Value wanted: pIC50 (rat NaPi-2b (Rattus norvegicus, UniProt Q9JJ09)) of entry Cc1ccc(/C=N/NC(=O)c2ccsc2NC(=O)c2cccc(CSCCCO)c2)cc1 4.90

Query pIC50 on rat NaPi-2b (Rattus norvegicus, UniProt Q9JJ09) for COc1ccc(/C=N/NC(=O)c2c(C)csc2NC(=O)c2cccc(CN3CCC(N4CCCCC4)CC3)c2)cc1 5.16

Query for rat NaPi-2b (Rattus norvegicus, UniProt Q9JJ09): what pIC50 does the record show for O=C(Nc1ccc(Br)cc1C(=O)NN=Cc1ccc(Cl)c(C(F)(F)F)c1)c1ccc(CNC(CN2CCOCC2)c2ccccc2)cc1 (stereo not drawn) ? 4.92

API: value(readout=pIC50, system=rat NaPi-2b (Rattus norvegicus, UniProt Q9JJ09)) for record CCN(CC)CCN(C)Cc1cccc(C(=O)Nc2cc(OCCOC)c(OCCOC)cc2C(=O)N/N=C/c2ccc(C)cc2)c1 4.46

Request - read-out pIC50 | tested on rat NaPi-2b (Rattus norvegicus, UniProt Q9JJ09) | compound O=C(Nc1ccc(Cl)cc1C(=O)N/N=C/c1ccc(Cl)c(C(F)(F)F)c1)c1cccc(CSCC(O)CO)c1 (stereo not drawn) 6.62

Fill in the recorded pIC50 for this compound, with rat NaPi-2b (Rattus norvegicus, UniProt Q9JJ09) as test system: O=C(Nc1ccc(N2CCCCC2)cc1C(=O)N/N=C/c1ccc(Cl)c(C(F)(F)F)c1)c1cccc(CNCCN(CCO)CCO)c1 5.76

Provide value of pIC50 for this record tested with rat NaPi-2b (Rattus norvegicus, UniProt Q9JJ09): COc1ccc(C(=O)Nc2ccccc2C(=O)N/N=C/c2cccc(F)c2)cc1 5.36

// lookup pIC50 | system=rat NaPi-2b (Rattus norvegicus, UniProt Q9JJ09) | key= CCN(CC)CCN(C)Cc1ccc(C(=O)Nc2ccc(Br)cc2C(=O)NN=Cc2ccc(F)cc2)cc1 6.96

Find pIC50 (rat NaPi-2b (Rattus norvegicus, UniProt Q9JJ09)) for the entry Cc1csc(NC(=O)c2cccc(CN3CCC(N4CCCCC4)CC3)c2)c1C(=O)N/N=C/c1ccc(Cl)c(C(F)(F)F)c1 5.76

Notebook entry, rat NaPi-2b (Rattus norvegicus, UniProt Q9JJ09) assay: pIC50 of Cc1cc(/C=N/NC(=O)c2cc(Cl)ccc2NC(=O)c2ccncc2)oc1C = ? 4.95

Form: Entry = COc1ccc(/C=N/NC(=O)c2cc(Br)ccc2NC(=O)c2ccc(CN3CCN(CCO)CC3)cc2)cc1 | System = rat NaPi-2b (Rattus norvegicus, UniProt Q9JJ09) | pIC50 = ____ 5.23

Value wanted: pIC50 (rat NaPi-2b (Rattus norvegicus, UniProt Q9JJ09)) of entry O=C(Nc1ccc(Cl)cc1C(=O)N/N=C/c1ccc(Cl)c(C(F)(F)F)c1)c1cnc2ccccc2n1 5.20

Request - read-out pIC50 | tested on rat NaPi-2b (Rattus norvegicus, UniProt Q9JJ09) | compound O=C(Nc1ccc(Cl)cc1C(=O)N/N=C/c1cccc(F)c1)c1ccccn1 5.15

Which pIC50 is reported with rat NaPi-2b (Rattus norvegicus, UniProt Q9JJ09) for this entry: CCN(CC)CCN(C)Cc1cccc(C(=O)Nc2ccc(N3CCCCC3)cc2C(=O)N/N=C/c2ccc(OC)cc2)c1 ? 5.91

# get_value(readout= pIC50, system= rat NaPi-2b (Rattus norvegicus, UniProt Q9JJ09)) for COc1cc(OC)cc(C(=O)Nc2ccccc2C(=O)N/N=C/c2ccc(Cl)c(C(F)(F)F)c2)c1 5.95

// lookup pIC50 | system=rat NaPi-2b (Rattus norvegicus, UniProt Q9JJ09) | key= O=C(Nc1ccc(Cl)cc1C(=O)N/N=C/C=C/c1ccccc1)c1cccnc1 4.78

Enter reported pIC50 observed with rat NaPi-2b (Rattus norvegicus, UniProt Q9JJ09) for CCN(CC)CCN(C)Cc1cccc(C(=O)Nc2ccc(Cl)cc2C(=O)N/N=C/c2ccc(Cl)c(C(F)(F)F)c2)c1 6.60

Reported pIC50 for rat NaPi-2b (Rattus norvegicus, UniProt Q9JJ09), given Cc1ccc(/C=N/NC(=O)c2ccccc2NC(=O)c2ccc(F)cc2)cc1 ? 5.54

State its pIC50 on rat NaPi-2b (Rattus norvegicus, UniProt Q9JJ09): COc1ccc(/C=N/NC(=O)c2cc(N3CCCCC3)ccc2NC(=O)c2cccc(CN3CCC(O)CC3)c2)cc1 5.28

Could you share what pIC50 was measured for Cc1ccc(C)c(/C=N/NC(=O)c2ccccc2NC(=O)c2ccccc2F)c1 , tested on rat NaPi-2b (Rattus norvegicus, UniProt Q9JJ09)? 5.13
